Molecular target: α-amylase (Homo sapiens, UniProt P04746)
Sequence (P04746 16-511): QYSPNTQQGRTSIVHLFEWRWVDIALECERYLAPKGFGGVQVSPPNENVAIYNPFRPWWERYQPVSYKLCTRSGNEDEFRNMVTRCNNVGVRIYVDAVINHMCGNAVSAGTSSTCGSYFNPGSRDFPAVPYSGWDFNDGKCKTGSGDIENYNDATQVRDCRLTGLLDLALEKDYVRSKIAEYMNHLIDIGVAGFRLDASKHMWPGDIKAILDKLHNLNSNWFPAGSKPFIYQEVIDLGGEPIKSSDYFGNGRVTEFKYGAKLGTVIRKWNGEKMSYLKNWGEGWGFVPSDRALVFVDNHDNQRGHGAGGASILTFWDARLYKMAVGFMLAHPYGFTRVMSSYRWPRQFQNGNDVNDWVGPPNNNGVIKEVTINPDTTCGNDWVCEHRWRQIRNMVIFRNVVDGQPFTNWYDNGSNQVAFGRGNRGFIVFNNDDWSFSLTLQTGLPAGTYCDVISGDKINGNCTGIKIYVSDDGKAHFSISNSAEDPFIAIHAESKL
Assay: α-Amylase inhibition
Type: biochemical
Details: read-out: α-Amylase Inhibition (%)
recorded-metric: inhibition at 20 µg/mL
Kindly report the value followed by its unit.

Would you mind telling me what inhibition at 20 µg/mL value was observed for O=c1/c(=C\[C@H](O)[C@@H](O)[C@H](O)CO)sc2nc3sc4c(c3c(=O)n12)CCCC4 [8d] ?
13%

Would you mind telling me what inhibition at 20 µg/mL value was observed for O=c1/c(=C\[C@H](O)[C@@H](O)[C@H](O)CO)sc2nc3sc4c(c3c(=O)n12)CCC4 [7d] ?
15.9%

Would you mind telling me what inhibition at 20 µg/mL value was observed for O=c1/c(=C\[C@H](O)[C@@H](O)[C@@H](O)[C@H](O)CO)sc2nc3sc4c(c3c(=O)n12)CCCC4 [8c] ?
11.9%

Would you mind telling me what inhibition at 20 µg/mL value was observed for O=c1/c(=C\[C@@H](O)[C@H](O)[C@H](O)CO)sc2nc3sc4c(c3c(=O)n12)CCC4 [7e] ?
14.6%

Would you mind telling me what inhibition at 20 µg/mL value was observed for O=c1/c(=C\[C@H](O)[C@@H](O)[C@@H](O)[C@H](O)CO)sc2nc3sc4c(c3c(=O)n12)CCC4 [7c] ?
16.2%

----------
Provide the reported DPPH (%) of each item.
Assay: DPPH radical scavenging
Assay type: biochemical
Settings: inhibition % at 20 µg/mL; mean ± SE, n = 3
Write the value in % as a bare number.

Would you mind telling me what DPPH (%) value was observed for O=c1/c(=C\[C@@H](O)[C@@H](O)[C@H](O)[C@H](O)CO)sc2nc3sc4c(c3c(=O)n12)CCC4 ?
18.19

Would you mind telling me what DPPH (%) value was observed for O=c1/c(=C\[C@H](O)[C@@H](O)[C@H](O)[C@H](O)CO)sc2nc3sc4c(c3c(=O)n12)CCCC4 ?
10.55

Would you mind telling me what DPPH (%) value was observed for O=c1/c(=C\[C@H](O)[C@@H](O)[C@H](O)[C@H](O)CO)sc2nc3sc4c(c3c(=O)n12)CCC4 ?
14.04

Would you mind telling me what DPPH (%) value was observed for O=c1/c(=C\[C@H](O)[C@@H](O)[C@@H](O)[C@H](O)CO)sc2nc3sc4c(c3c(=O)n12)CCC4 ?
17.00

Would you mind telling me what DPPH (%) value was observed for O=c1/c(=C\[C@H](O)[C@@H](O)[C@H](O)CO)sc2nc3sc4c(c3c(=O)n12)CCCC4 ?
13.62

Would you mind telling me what DPPH (%) value was observed for O=c1/c(=C\[C@@H](O)[C@H](O)[C@H](O)CO)sc2nc3sc4c(c3c(=O)n12)CCC4 ?
15.37

Would you mind telling me what DPPH (%) value was observed for O=c1/c(=C\[C@H](O)[C@@H](O)[C@H](O)CO)sc2nc3sc4c(c3c(=O)n12)CCC4 ?
16.69

Would you mind telling me what DPPH (%) value was observed for O=c1/c(=C\[C@H](O)[C@@H](O)[C@@H](O)[C@H](O)CO)sc2nc3sc4c(c3c(=O)n12)CCCC4 ?
12.50

----------
Test: Hydrogen peroxide (H2O2) scavenging
Type: biochemical
Conditions: mean ± SE, n = 3
recorded-metric: H2O2 scavenging IC50 (µg/mL)
Write the value in µg/mL as a bare number.

Would you mind telling me what H2O2 scavenging IC50 value was observed for O=c1/c(=C\[C@H](O)[C@@H](O)[C@H](O)CO)sc2nc3sc4c(c3c(=O)n12)CCCC4 [8d] ?
77.03

Would you mind telling me what H2O2 scavenging IC50 value was observed for O=c1/c(=C\[C@H](O)[C@@H](O)[C@H](O)[C@H](O)CO)sc2nc3sc4c(c3c(=O)n12)CCC4 [7a] ?
73.10

Would you mind telling me what H2O2 scavenging IC50 value was observed for O=C1O[C@H]([C@@H](O)CO)C(O)=C1O [ascorbic acid, reference compound] ?
9.24
